Tested on: H69/P
assay-summary: MTT assay, 7-day exposure: sensitivity of parent cells to chemotherapeutic agents with or without MDR inhibitor (Example 1)
Type: cell-based, human
run-conditions: Homo sapiens, 168 h; H69/P; with Clofazimine 1 µg/ml; 7 day exposure; read-out: IC50 of chemotherapeutic agent, MDR INHIBITOR Clofazimine (B663)
Give measured IC50 for each item. Keep answers brief.
Give the value; after it, write the unit.

What measured IC50 goes with COc1cccc2c1C(=O)c1c(O)c3c(c(O)c1C2=O)C[C@@](O)(C(=O)CO)C[C@@H]3O[C@H]1C[C@H](N)[C@H](O)[C@H](C)O1 ?
4 ng/mL

Repeat for the following molecule: CC[C@]1(O)C[C@@H]2CN(CCc3c([nH]c4ccccc34)[C@@](C(=O)OC)(c3cc4c(cc3OC)N(C)[C@H]3[C@@](O)(C(=O)OC)[C@H](OC(C)=O)[C@]5(CC)C=CCN6CC[C@]43[C@@H]65)C2)C1
0.8 ng/mL

Repeat for the following molecule: CN(Cc1cnc2nc(N)nc(N)c2n1)c1ccc(C(=O)N[C@@H](CCC(=O)O)C(=O)O)cc1 [Methotrexate]
3700 ng/mL

Repeat for the following molecule: COc1cc([C@@H]2c3cc4c(cc3[C@@H](O[C@@H]3O[C@@H]5CO[C@@H](C)O[C@H]5[C@H](O)[C@H]3O)[C@H]3COC(=O)[C@H]23)OCO4)cc(OC)c1O [Etoposide]
0.11 ng/mL

Repeat for the following molecule: COc1cccc2c1C(=O)c1c(O)c3c(c(O)c1C2=O)C[C@@](O)(C(C)=O)C[C@@H]3O[C@H]1C[C@H](N)[C@H](O)[C@H](C)O1
2 ng/mL
